molecules and their reported Ca Conc. ± S.E. (average blood calcium concentration)
system: PTHrp(1-34)-Induced Hypercalcemia in Rats; test: Effect on PTHrp(1-34)-induced hypercalcemia in rats (p.o.); format: in vivo; details: male Wistar rats, 40 mg/kg p.o.; PTHrp(1-34) 5 nmole/kg i.v. four hours later; blood sample 1 hour after PTHrp; n = 5; PTHrp-only control 10.84 ± 0.11
Write the answer as a number in mg/dL, unit excluded.

Worked cases, answers included:
[[record]]
molecule = "CC(C)CC(C=O)NC(=O)[C@H](CC(C)C)NC(=O)OCc1ccccc1 (stereo partly drawn)"
reportedresult = 10.26

[[record]]
molecule = "CCCCC(NC(=O)[C@H](CC(C)C)NC(=O)OCc1ccccc1)C1NCCS1 (stereo partly drawn)"
reportedresult = 9.98

[[record]]
molecule = "CCCCC(NC(=O)[C@H](CC(C)C)NC(C)=O)C1NCCS1 (stereo partly drawn)"
reportedresult = 9.98

[[record]]
molecule = "CCCCC(NC(=O)[C@H](CC(C)C)NC(=O)C(C)C)C(OC)OC (stereo partly drawn)"
reportedresult = 9.83

[[record]]
molecule = "CCCCC(NC(=O)[C@H](CC(C)C)NC(=O)CCC)C(OC)OC (stereo partly drawn)"
reportedresult = 9.85

[[record]]
molecule = "CCCCC(NC(=O)[C@H](CC(C)C)NC(=O)OCc1ccccc1)C1OCCO1 (stereo partly drawn)"
reportedresult = 10.41


Problem: Value lookup for Ca Conc. ± S.E. (average blood calcium concentration); key = CCCCC(NC(=O)[C@H](CC(C)C)NC(=O)OCc1ccccc1)C(OC)OC (stereo partly drawn)
Solution: 10.36

Problem: Try CCCCC(NC(=O)[C@H](CC(C)C)NC(C)=O)C(OCC)OCC (stereo partly drawn) next.
Solution: 10.05

Problem: Then this molecule: CCCCC(NC(=O)[C@H](CC(C)C)NC(=O)CC)C(OC)OC (stereo partly drawn)
Solution: 9.88

---

Let's look at some molecules and their measured Ca Conc. ± S.E. (average blood calcium concentration).
test system: PTHrp(1-34)-Induced Hypercalcemia in Rats; test: Effect on PTHrp(1-34)-induced hypercalcemia in rats (p.o.); assay type: in vivo; details: male Wistar rats, 40 mg/kg p.o.; PTHrp(1-34) 5 nmole/kg i.v. four hours later; blood sample 1 hour after PTHrp; n = 5; PTHrp-only control 10.84 ± 0.11
Numbers only; they are read as mg/dL.

[[record]]
molecule = "CCCCC(NC(=O)[C@H](CC(C)C)NC(=O)C(F)(F)F)C(OC)OC (stereo partly shown) [Example 27]"
reportedresult = 9.91

[[record]]
molecule = "CCCCC(NC(=O)[C@H](CC(C)C)NC(C)=O)C(OC)OC (stereo partly shown) [Example 16]"
reportedresult = 9.91

[[record]]
molecule = "CCCCC(NC(=O)[C@H](CC(C)C)NC(=O)CCl)C(OC)OC (stereo partly shown) [Example 24]"
reportedresult = 10.12


Now look at this one.
Problem: Query the reported Ca Conc. ± S.E. (average blood calcium concentration) for PTHrp(1-34)-Induced Hypercalcemia in Rats; item: CCCCC(NC(=O)[C@H](CC(C)C)NC(C)=O)C1OCCO1 (stereo partly shown) [Example 17]
Solution: 9.97
